A collection of binders and their measured Binding to Protein S in CaCl2 (OD)
- targetOrSystem: T1, human Protein S (human, UniProt P07225 42-676)
- T1 construct: also called ProS; ProS1
- T1 sequence: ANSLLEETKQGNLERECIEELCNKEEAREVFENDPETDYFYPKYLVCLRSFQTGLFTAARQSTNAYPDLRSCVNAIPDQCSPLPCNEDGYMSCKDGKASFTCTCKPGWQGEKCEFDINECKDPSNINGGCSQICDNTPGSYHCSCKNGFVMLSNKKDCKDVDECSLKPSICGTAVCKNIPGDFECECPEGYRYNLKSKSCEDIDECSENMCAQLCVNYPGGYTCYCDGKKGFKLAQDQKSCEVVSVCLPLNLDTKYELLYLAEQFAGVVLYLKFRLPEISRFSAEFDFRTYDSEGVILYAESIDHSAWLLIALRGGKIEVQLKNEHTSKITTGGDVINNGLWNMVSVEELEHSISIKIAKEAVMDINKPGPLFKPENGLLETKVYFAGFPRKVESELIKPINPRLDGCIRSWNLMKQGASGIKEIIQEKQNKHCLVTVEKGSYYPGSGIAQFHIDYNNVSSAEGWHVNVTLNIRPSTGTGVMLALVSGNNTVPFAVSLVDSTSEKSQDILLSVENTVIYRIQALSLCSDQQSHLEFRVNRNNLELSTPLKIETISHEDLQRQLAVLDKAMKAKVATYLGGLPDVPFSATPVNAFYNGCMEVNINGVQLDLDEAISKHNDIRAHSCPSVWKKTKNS
- assaySummary: ELISA; plate coated with human Protein S; 1 µg/ml antibody; 1 mM calcium chloride
Answer with a number only, understood to be in OD.

| binder | observedMeasurement |
| --- | --- |
| Antibody 15 (antibody, V domains shown, Human variable region with rat Fc) VH: EVQLVESGGGLVQPGRSLRLSCAASGFTFDDYAMHWVRQAPGKGLEWVSGITWNSGNIGYADSVKGRFTISRDNAKNSLYLHMNSLRIEDTAFYYCAKGRAVSDTFDIWGQGTMVTVSS VL: SYELNQPPSVSVSPGQTASITCSGDKLGDKYASWYQQKPGQSPVVAIYQNSKRPSGIPERFSASNSGNTATLTISGTQALDEADYYCQAWDSSTWVFGGGTKLTVL | 1.86 |

For the binder Antibody 20 (antibody, V domains shown, Human variable region with rat Fc) VH: QVQLQESGPGLVKPSETLSLTCAVSGYSISSGYYWGWIRQPPGKGLDWIGSIYYSGSTYYNPSLKSRVTISVDTSKNQISLKLSSVTAADTAVYYCATTYSDIVTGYYNDAFDIWGQGTMVTVSS VL: EIVMTQSPATLSVSPGERATLSCRASQRINSNLAWYQQKPGQAPRLLIYGASTRATGIPARFSGSGSGTEFTLTISSLQSEDFAAYYCQQYDNWPLTFGGGTKVEIK , what Binding to Protein S in CaCl2 (OD) is on record? 1.93

Return reported Binding to Protein S in CaCl2 (OD); argument: Antibody 34 (antibody, V domains shown) VH: QVQLQQSGTELVRPGTSVKMSCKAAGYTFTNHWIGWVKQRPGHGLEWIGDIYPGGGYTNYNEKFKGKASLTADTSSTTAYMQLSSLTSEDSAIYYCSRFGDQNWAWFAYWGQGTLVTVSA VL: DIQMNQSPSSLSASLGDTITITCRASQNIHMWLSWYQQKPGNIPKLLIFKTSNLHTGVPSRFSGSGSGTDFTLTISSLQPEDIATYYCLQGQSYPFTFGGGTKLEIK 0.51
